Attribution: ChEMBL document CHEMBL1141037

// each record: one item and its pKi for Kappa-type opioid receptor (Homo sapiens, UniProt P41145)
pKi: −log10 of the molar value.

[
  {
    "entry.smiles": "COCOC(=O)[C@@H]1C[C@H](OC(C)=O)C(=O)[C@H]2[C@@]1(C)CC[C@H]1C(=O)O[C@H](c3ccoc3)C[C@]21C",
    "reading.qualifier": "=",
    "pKi": 7.00
  },
  {
    "entry.smiles": "C#CCCCOC(=O)[C@@H]1C[C@H](OC(C)=O)C(=O)[C@H]2[C@@]1(C)CC[C@H]1C(=O)O[C@H](c3ccoc3)C[C@]21C",
    "reading.qualifier": "=",
    "pKi": 6.70
  },
  {
    "entry.smiles": "CC(=O)O[C@H]1C[C@@H](C(=O)NCC(=O)OCc2ccccc2)[C@]2(C)CC[C@@H]3C(=O)O[C@H](c4ccoc4)C[C@]3(C)[C@H]2C1=O",
    "reading.qualifier": "<",
    "pKi": 6.00
  }
]
